[
  {
    "Molecule": "CC1CN1 (stereo not drawn) [2-methylaziridine]",
    "flash point [°C]": -4.00
  },
  {
    "Molecule": "CCCCOCC [1-ethoxybutane]",
    "flash point [°C]": 4.00
  },
  {
    "Molecule": "CC(Br)c1ccccc1 (stereo not drawn) [1-bromoethylbenzene]",
    "flash point [°C]": 96.00
  },
  {
    "Molecule": "O=C(CCl)c1ccccc1 [2-chloro-1-phenylethanone]",
    "flash point [°C]": 118.00
  },
  {
    "Molecule": "CC(C)CC(C)Nc1ccc(Nc2ccccc2)cc1 (stereo not drawn) [4-N-(4-methylpentan-2-yl)-1-N-phenylbenzene-1,4-diamine]",
    "flash point [°C]": 204.00
  },
  {
    "Molecule": "C=CCCl [3-chloroprop-1-ene]",
    "flash point [°C]": -32.00
  },
  {
    "Molecule": "Cc1c2ccccc2c(C)c2c1ccc1ccccc12 [7,12-dimethylbenzo[a]anthracene]",
    "flash point [°C]": 86.00
  },
  {
    "Molecule": "ClCCCl [1,2-dichloroethane]",
    "flash point [°C]": 13.00
  },
  {
    "Molecule": "CC(Cl)Cl [1,1-dichloroethane]",
    "flash point [°C]": -6.00
  },
  {
    "Molecule": "CCCCOCCOCCCC [1-(2-butoxyethoxy)butane]",
    "flash point [°C]": 85.00
  },
  {
    "Molecule": "OC1CCCCC1 [cyclohexanol]",
    "flash point [°C]": 68.00
  },
  {
    "Molecule": "CCCO [propan-1-ol]",
    "flash point [°C]": 25.00
  },
  {
    "Molecule": "C=Cc1ccccc1Cl [1-chloro-2-ethenylbenzene]",
    "flash point [°C]": 59.00
  },
  {
    "Molecule": "C[CH2][Pb]([CH2]C)([CH2]C)[CH2]C [tetraethylplumbane]",
    "flash point [°C]": 93.00
  },
  {
    "Molecule": "CC(=O)CC(C)=O [pentane-2,4-dione]",
    "flash point [°C]": 34.00
  },
  {
    "Molecule": "Cc1ccc2oc(=O)ccc2c1 [6-methylchromen-2-one]",
    "flash point [°C]": 130.00
  },
  {
    "Molecule": "C[Si](Cl)(Cl)Cl [trichloro(methyl)silane]",
    "flash point [°C]": -9.00
  },
  {
    "Molecule": "Cc1ccc(N)cc1[N+](=O)[O-] [4-methyl-3-nitroaniline]",
    "flash point [°C]": 157.00
  },
  {
    "Molecule": "NC(=O)c1cccnc1 [pyridine-3-carboxamide]",
    "flash point [°C]": 182.00
  },
  {
    "Molecule": "CC1CCCCC1 [methylcyclohexane]",
    "flash point [°C]": -4.00
  },
  {
    "Molecule": "CCCC(=O)CCC [heptan-4-one]",
    "flash point [°C]": 49.00
  },
  {
    "Molecule": "CCCCCCCCOC(=O)CCCCCCCC1OC1CCCCCCCC (stereo not drawn) [octyl 8-(3-octyloxiran-2-yl)octanoate]",
    "flash point [°C]": 217.00
  },
  {
    "Molecule": "Cc1ccc2cccnc2c1 [7-methylquinoline]",
    "flash point [°C]": 110.00
  }
]
